# Tested on: SK-MEL-28 melanoma
# Assay method text: NCI-60 one-dose screen, 48 h (100 = growth as untreated, 0 = no growth, -100 = all killed)
# Study conditions: 10 µM unless noted
# Experimental: Growth inhibition of the SK-MEL-28 human tumor cell line is measured as a screen for anti-cancer activity. Cells are grown in 96 well plates and exposed to the test compound for 48 hours. Compounds are tested at a single concentration, which is 10^-5 M for most compounds. The reported endpoint is percent growth (GI% or GIPRCNT), where numbers from 0 - 100% represent growth inhibition, and numbers from -100% - 0 represent cell death. For example, a value of 40 represents 60% growth inhibition. […]
Compounds without any hit were thinned out: in the full panel of roughly 83,000, 20% have a hit.
Experimental endpoint: growth (%)
Numbers only; they are read as %.

Task item: # return growth of `COc1ccc(/C(N)=N/C(N)=N/c2nc3ccccc3s2)cc1` (system: SK-MEL-28 melanoma)
Reply: 79.6

Task item: # return growth of `O=C(CSc1nnc(-c2ccc(Cl)cc2)n1-c1ccccc1)Nc1ccc(Br)cc1` (system: SK-MEL-28 melanoma)
Reply: 33.4

Task item: # return growth of `Cc1noc(C)c1CSc1nc2ccccc2n1-c1ccccc1` (system: SK-MEL-28 melanoma)
Reply: 111

Task item: # return growth of `COc1ccccc1NCc1cccn1Cc1ccc(F)cc1` (system: SK-MEL-28 melanoma)
Reply: 97.4

Task item: # return growth of `NC(N)=Nc1ccc(Oc2cccc(Nc3ccc(Cl)cc3)c2)cn1` (system: SK-MEL-28 melanoma)
Reply: 49.4

Task item: # return growth of `CNC(=O)c1cc(Oc2ccc3nc(NC(=O)c4cccc(OC(F)(F)F)c4)sc3c2)ccn1` (system: SK-MEL-28 melanoma)
Reply: 85.3

Task item: # return growth of `NC(N)=Nc1ccc(Oc2cccc(NC(N)=Nc3ccc(Cl)c(C(F)(F)F)c3)c2)cn1` (system: SK-MEL-28 melanoma)
Reply: 61.6

Task item: # return growth of `Cc1ccc(S(=O)(=O)N(CC[C@@H]2C[C@H]2c2cc3ccccc3o2)S(=O)(=O)c2ccc(C)cc2)cc1` (system: SK-MEL-28 melanoma)
Reply: 93.5

Task item: # return growth of `Nc1nc(Nc2ccccc2SSc2ccccc2Nc2nc(N)nc(-c3ccc4ccccc4c3)n2)nc(-c2ccc3ccccc3c2)n1` (system: SK-MEL-28 melanoma)
Reply: 102

Task item: # return growth of Cc1ccc(NC(=O)N[C@@H](Cc2cc(F)cc(F)c2)C(=O)NC2C(=O)N3C[C@H](O)C[C@H]3C(=O)N3CCCC[C@H]3C(=O)N[C@@H](CO)C(=O)N3C[C@H](C)C[C@H]3C(=O)O[C@H]2C)c(F)c1 (stereo partly drawn) (system: SK-MEL-28 melanoma)
Reply: 47.4

Task item: # return growth of `NC(=O)c1c(NC(=O)c2ccc(F)cc2F)sc2c1CCC(=O)C2` (system: SK-MEL-28 melanoma)
Reply: 37

Task item: # return growth of `O=c1[nH]c2ccccc2cc1CSc1ccccc1Nc1nccc(-c2ccc(Cl)cc2)n1` (system: SK-MEL-28 melanoma)
Reply: 107

Task item: # return growth of `N#Cc1cccc(/C(N)=N/C(N)=N/c2nc3ccccc3s2)c1` (system: SK-MEL-28 melanoma)
Reply: 65.4

Task item: # return growth of `COc1ccc(NC(=O)CSc2nnc(-c3ccc4nc(-c5ccc(OC)c(OC)c5)[nH]c4c3)o2)cc1OC` (system: SK-MEL-28 melanoma)
Reply: 97

Task item: # return growth of `CCN(CC)CCn1c2ccc(O)cc2c2sc3cc(OC)ccc3c(=O)c21` (system: SK-MEL-28 melanoma)
Reply: 2.25

Task item: # return growth of `COc1ccc(-c2nc3ccc(-c4nnc(SCC(=O)Nc5ccc(C(=O)/C=C/c6ccc(Cl)cc6)cc5)o4)cc3[nH]2)cc1` (system: SK-MEL-28 melanoma)
Reply: 101

Task item: # return growth of `O=C(CCC(=O)N1CCOCC1)OCCCCCCSc1ccc([N+](=O)[O-])c2nonc12` (system: SK-MEL-28 melanoma)
Reply: -36.9

Task item: # return growth of `NC(N)=Nc1ccc(Nc2cccc(Oc3ccc(Cl)c(C(F)(F)F)c3)c2)cn1` (system: SK-MEL-28 melanoma)
Reply: 60.7

Task item: # return growth of CCCn1cnc2c(c1=N)C(c1ccc(Cl)cc1)c1sc3c(C)cccc3c1O2 (stereo not drawn) (system: SK-MEL-28 melanoma)
Reply: 60.9

Task item: # return growth of `NC(N)=Nc1ccc(Oc2cccc(NC(N)=Nc3ccc(Br)cc3)c2)cn1` (system: SK-MEL-28 melanoma)
Reply: 82.9

Task item: # return growth of `CC(=O)c1ccc(Nc2nc(SCC(C)C)nc(-c3ccccc3)c2C#N)cc1` (system: SK-MEL-28 melanoma)
Reply: 101

Task item: # return growth of `COc1ccc(/C=C/C(=O)c2cccc(NC(=O)CSc3nc4ccccc4c(=O)n3-c3ccccc3)c2)cc1OC` (system: SK-MEL-28 melanoma)
Reply: 115

Task item: # return growth of `CC1=NC2=NN3C(=NN2C(c2ccccc2)=C1)N=NC(c1ccc(Br)cc1)=C3c1ccc(Br)cc1` (system: SK-MEL-28 melanoma)
Reply: 105

Task item: # return growth of `COc1cc2oc(-c3cccc(C(=O)N[C@@H](CC(C)C)C(=O)OC(C)(C)C)c3)cc(=O)c2c(OC)c1OC` (system: SK-MEL-28 melanoma)
Reply: 95.9

Task item: # return growth of `O=C(CCn1c[n+](CC(=O)c2ccc(F)cc2)c2ccccc21)Nc1cccc2cccnc12` (system: SK-MEL-28 melanoma)
Reply: 60.1

Task item: # return growth of `O=C(Cn1c(-c2ccccc2)nc2cc(Cl)c(Cl)cc21)N=Nc1c(O)[nH]c2ccc(Cl)cc12` (system: SK-MEL-28 melanoma)
Reply: 66.4

Task item: # return growth of `O=C(CSc1nnc(-c2ccc(Cl)cc2)n1-c1ccccc1)Nc1cccc(Cl)c1` (system: SK-MEL-28 melanoma)
Reply: 97.8

Task item: # return growth of CCCn1cnc2c(c1=N)C(c1ccc(F)cc1)c1sc3c(CC)cccc3c1O2 (stereo not drawn) (system: SK-MEL-28 melanoma)
Reply: 40.4

Task item: # return growth of `O=C(Nc1ccc(F)c(F)c1)c1cc(-c2ccc(F)cc2F)ccc1O` (system: SK-MEL-28 melanoma)
Reply: 20

Task item: # return growth of `CCOC(=O)c1c(N)c(C#N)cn1-c1cc(OC)c(OC)c(OC)c1` (system: SK-MEL-28 melanoma)
Reply: 108

Task item: # return growth of `CCCCCc1ccc(S(=O)(=O)Nc2cccc(-c3csc(NC(=O)CNCCN(C)C)n3)c2)cc1` (system: SK-MEL-28 melanoma)
Reply: 90.6

Task item: # return growth of `N/C(=N\C(N)=N\c1nc2ccccc2s1)c1ccc(C(F)(F)F)cc1` (system: SK-MEL-28 melanoma)
Reply: 94.8

Task item: # return growth of `COc1cc(-c2nc3sccn3c2-c2ccnc(S(C)(=O)=O)n2)ccc1F` (system: SK-MEL-28 melanoma)
Reply: 97.7

Task item: # return growth of `O=C(NNc1nc2cc(F)c(F)cc2n2cccc12)c1cnccn1` (system: SK-MEL-28 melanoma)
Reply: 36

Task item: # return growth of `COc1cc(Nc2c(C#N)cnn3cc(-c4cnn(CC(C)(C)O)c4)cc23)ccc1Cl` (system: SK-MEL-28 melanoma)
Reply: 86

Task item: # return growth of `Cc1ccc(-n2c(/C=C3\C(=O)Nc4ccccc43)ccc2CO)cc1` (system: SK-MEL-28 melanoma)
Reply: 70.9

Task item: # return growth of `Nc1nc(-c2cccc([N+](=O)[O-])c2)c(N=Nc2ccc(Br)cc2)s1` (system: SK-MEL-28 melanoma)
Reply: 4.69

Task item: # return growth of `O=C(/C=C/c1ccc(F)cc1)c1ccc(O)cc1` (system: SK-MEL-28 melanoma)
Reply: 109
